Kd overview
- system-under-test: T1, soluble human FcRn (human, UniProt P55899 24-297; P61769 21-119, biotinylated (Sulfo-NHS-LC-Biotin) in the ELISA; amine-coupled to CM5 chip in SPR)
- T1 construct: also called shFcRn; biotinylated shFcRn
- T1 sequence (P55899 24-297 limits assumed, chain 1 of 2): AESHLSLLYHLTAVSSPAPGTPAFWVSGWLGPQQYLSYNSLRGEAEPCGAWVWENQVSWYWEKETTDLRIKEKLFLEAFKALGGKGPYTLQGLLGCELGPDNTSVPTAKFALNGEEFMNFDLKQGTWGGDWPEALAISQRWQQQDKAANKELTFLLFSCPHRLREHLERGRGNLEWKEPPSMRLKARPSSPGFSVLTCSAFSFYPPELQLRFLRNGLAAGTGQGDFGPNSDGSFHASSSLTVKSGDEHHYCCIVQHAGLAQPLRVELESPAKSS
- T1 sequence (P61769 21-119 limits assumed, chain 2 of 2): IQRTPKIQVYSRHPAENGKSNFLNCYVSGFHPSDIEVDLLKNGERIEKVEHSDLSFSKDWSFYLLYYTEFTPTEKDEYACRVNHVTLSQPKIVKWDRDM
- measurement-protocol: SPR, pH 6
Bridge positions count the residues as written; N and C are the ends. Square brackets hold non-standard residues; d marks the D form. Ends that are not written are not given here.
observation-type: Kd (µM)

| binder | reported |
| --- | --- |
| QRFSTGHFGGLYPSNGP-NH2 [Peptide No. 71] | 230 |
| FVTGHFG[dP]WYPA-NH2 (N-terminus assumed; SMILES CC(C)[C@H](NC(=O)[C@@H](N)Cc1ccccc1)C(=O)N[C@H](C(=O)NCC(=O)N[C@@H](Cc1c[nH]cn1)C(=O)N[C@@H](Cc1ccccc1)C(=O)NCC(=O)N1CCC[C@@H]1C(=O)N[C@@H](Cc1c[nH]c2ccccc12)C(=O)N[C@@H](Cc1ccc(O)cc1)C(=O)N1CCC[C@H]1C(=O)N[C@@H](C)C(N)=O)[C@@H](C)O) [Peptide No. 211] | 8 |
| QRFCTGHFGGLYPCNGP-NH2 (disulfide 4-14 (inferred)) [SEQ ID NO:1] | 5.1 |
| QRFVTGHFG[dP]LYPINGP-NH2 (N-terminus assumed; SMILES CC[C@H](C)[C@H](NC(=O)[C@@H]1CCCN1C(=O)[C@H](Cc1ccc(O)cc1)NC(=O)[C@H](CC(C)C)NC(=O)[C@H]1CCCN1C(=O)CNC(=O)[C@H](Cc1ccccc1)NC(=O)[C@H](Cc1c[nH]cn1)NC(=O)CNC(=O)[C@@H](NC(=O)[C@@H](NC(=O)[C@H](Cc1ccccc1)NC(=O)[C@H](CCCNC(=N)N)NC(=O)[C@@H](N)CCC(N)=O)C(C)C)[C@@H](C)O)C(=O)N[C@@H](CC(N)=O)C(=O)NCC(=O)N1CCC[C@H]1C(N)=O) [Peptide No. 169] | 15 |
| QRFVTGHFG[dP]WYPANGP-NH2 (N-terminus assumed; SMILES CC(C)[C@H](NC(=O)[C@H](Cc1ccccc1)NC(=O)[C@H](CCCNC(=N)N)NC(=O)[C@@H](N)CCC(N)=O)C(=O)N[C@H](C(=O)NCC(=O)N[C@@H](Cc1c[nH]cn1)C(=O)N[C@@H](Cc1ccccc1)C(=O)NCC(=O)N1CCC[C@@H]1C(=O)N[C@@H](Cc1c[nH]c2ccccc12)C(=O)N[C@@H](Cc1ccc(O)cc1)C(=O)N1CCC[C@H]1C(=O)N[C@@H](C)C(=O)N[C@@H](CC(N)=O)C(=O)NCC(=O)N1CCC[C@H]1C(N)=O)[C@@H](C)O) [Peptide No. 177] | 5.8 |
